System: ATP;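 also: ATP exposure 15 min at 22 °C before imaging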
Assay: switch fluorescence ratio, 500 uM ATP over buffer (Cy3 cluster intensity, sum of 5 cycles each) (fold (ratio)); higher = stronger signal-on switching upon ATP binding; sequences stand for … in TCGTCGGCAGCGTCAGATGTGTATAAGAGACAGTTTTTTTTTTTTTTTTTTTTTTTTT…TC
Settings: aptamer strand: ATP DNA aptamer (quencher-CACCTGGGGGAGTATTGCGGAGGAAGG + anchor), 100 nM annealed; ATP concentration: 500 uM
measured_attribute: switch fluorescence ratio
Answer as a number with no unit attached.

A selection of reference data follows.
{"item_sequence": "AAACTAGGGG", "measured_value": 1.06}
{"item_sequence": "GTTCTCAGAT", "measured_value": 0.982}
{"item_sequence": "GGGGATGTTA", "measured_value": 1.01}
{"item_sequence": "GTTTTTATAT", "measured_value": 1.03}
{"item_sequence": "GCTTAAGGCT", "measured_value": 1}

What the record says about AAAGAAGGTG : switch fluorescence ratio is 1.06

Record summary for GTGTAAATAG : reported switch fluorescence ratio = 1.01

Data point: GGTGGATTGC ; switch fluorescence ratio = 1.04

Reported switch fluorescence ratio ( GGTGCTTAAT ) = 1

Quick note, switch fluorescence ratio for ATAGTTGGTT landed at 1.01
